The reported numbers originate from BigSolDB 2.1.

TEST CONTEXT: in n-propanol, 298.15 K
EXPERIMENTAL READOUT: solubility (mole fraction)

In [3]: df
Out[3]:
                           smiles_structure  data_value
0  CC(C)(C)OC(=O)N[C@@H](CCCN=C(N)N[N+](=O)[O-])C(=O)O      0.0114

* * *

TEST CONTEXT: in n-butanol, 283.15 K
EXPERIMENTAL READOUT: solubility (mole fraction)

In [3]: df
Out[3]:
                           smiles_structure  data_value
0  CC(C)(C)OC(=O)N[C@@H](CCCN=C(N)N[N+](=O)[O-])C(=O)O     0.00377
